# TARGET UNDER TEST: Rat recombinant PDE10A (rPDE10A2) (Rattus norvegicus, UniProt Q9QYJ6)
# Construct: inferred from the Ni metal chelate purification; made in house; host or cells: Sf9 insect cells (baculovirus)
# Sequence (Q9QYJ6 1-794): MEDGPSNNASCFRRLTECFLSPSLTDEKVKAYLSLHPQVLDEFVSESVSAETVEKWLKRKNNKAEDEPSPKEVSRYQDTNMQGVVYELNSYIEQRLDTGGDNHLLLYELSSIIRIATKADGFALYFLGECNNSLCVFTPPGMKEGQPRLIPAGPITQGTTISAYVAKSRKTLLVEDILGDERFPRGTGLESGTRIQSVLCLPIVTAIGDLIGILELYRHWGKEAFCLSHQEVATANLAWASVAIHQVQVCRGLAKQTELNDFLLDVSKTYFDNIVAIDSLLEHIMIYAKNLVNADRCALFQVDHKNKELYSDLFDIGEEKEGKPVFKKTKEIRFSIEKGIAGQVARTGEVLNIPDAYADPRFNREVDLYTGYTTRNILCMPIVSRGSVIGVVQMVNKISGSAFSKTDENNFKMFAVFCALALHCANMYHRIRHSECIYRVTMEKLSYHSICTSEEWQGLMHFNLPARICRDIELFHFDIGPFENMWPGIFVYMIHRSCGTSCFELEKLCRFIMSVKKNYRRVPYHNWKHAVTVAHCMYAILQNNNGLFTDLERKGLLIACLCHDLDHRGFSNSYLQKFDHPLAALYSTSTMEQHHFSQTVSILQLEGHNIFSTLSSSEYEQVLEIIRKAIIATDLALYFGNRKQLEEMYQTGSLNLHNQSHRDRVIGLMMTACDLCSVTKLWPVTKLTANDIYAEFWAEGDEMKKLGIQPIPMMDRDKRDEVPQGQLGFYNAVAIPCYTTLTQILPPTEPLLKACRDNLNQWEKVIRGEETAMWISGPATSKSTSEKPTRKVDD
# ASSAY REMARKS: In vitro assay PDE10A (SPA, 3H-cAMP)
# Type: biochemical
# RUN PARAMETERS: Table 4 in vitro selectivity; read-out: PDE 10A2 (expressed as pIC50) (converted)
QUANTITY KIND: IC50 (µM)

COMPOUND: CO[C@@H](C)Cn1cc(-c2c(C)nc3c(N4CCOCC4)ccnn23)cn1 [compound 131]
TARGET UNDER TEST: Rat recombinant PDE10A (rPDE10A2) (Rattus norvegicus, UniProt Q9QYJ6)
IC50 [µM]: 0.0347

(A) CCc1nc2c(N3CCOCC3)ccnn2c1-c1cnn(CCOC)c1 [compound 127]
(B) Cc1nc2c(N3CCOCC3)ccnn2c1-c1ccnc(N2CCOCC2)c1 [compound 91]
(C) Cc1nc2c(-c3ccncc3)ccnn2c1-c1cnn(CC(F)(F)F)c1 [compound 135]
(D) COCCOc1ccc(-c2c(C3CC3)nc3c(N4CCOCC4)cc(C)nn23)cn1 [compound 74]
Please list these compounds in decreasing order of IC50. Put the labels in the requested order and write them down. D, A, B, C
(D: 0.589 µM, A: 0.112 µM, B: 0.0468 µM, C: 0.0182 µM)
